The measured values listed here are drawn from patent US20260070922A1.

# Target System: Orexin type 1 (OX1R) receptor (Homo sapiens, UniProt O43613)
# Construct: expressed in transfected cells; host or cells: CHO cells (G418 selection)
# Test: In vitro orexin antagonism assay: intracellular calcium measurement (FLIPR), orexin-A 3 nM as agonist
# Type: cell-based
# Experimental Conditions: read-out: OX1R, % Inh. @ 1 uM
Property Label: inhibition at 1 µM (%)

Solved cases (6 shown):
O=C(c1c(-c2ccccc2F)nn2c1COCC2)N1CCC[C@H]1Cn1cc(-c2ccc(F)cn2)cn1; 17
O=C(c1c(-c2ccccc2)nc2ccc(F)cn12)N1[C@H](Cn2ccc(-c3ccc(F)cc3)n2)C[C@@H]2C[C@@H]21; 70
O=C(c1nc2n(c1-c1ccccn1)CCOC2)N1CCC[C@H]1Cn1cc(-c2ccc(F)cn2)cn1; 79
O=C(c1c(-c2ccccc2F)nn2ccccc12)N1[C@H](Cn2ccc(-c3ccc(F)cn3)n2)C[C@@H]2C[C@@H]21; 92
O=C(c1c(-c2ccccc2)nn2ccccc12)N1[C@@H]2CC[C@@H](C2)[C@H]1COc1ccc(C(F)(F)F)cn1; 97
O=C(c1nn2c(c1-c1ccccc1)COCC2)N1CCC[C@H]1Cn1ccc(-c2ccccn2)n1; 100

I = O=C(c1c(-c2ccccc2F)nn2ccccc12)N1CCC[C@H]1Cn1cc(-c2ccccn2)cn1
II = O=C(c1c(-c2ccccc2)nc2ncccn12)N1CCC[C@H]1CNc1ccc(C(F)(F)F)cn1
// which entry has the larger inhibition at 1 µM value, I or II ? Identify your pick by its label. I

----------
# Target System: human k-opioid receptor (kOR) (Homo sapiens, UniProt P41145)
# Construct: expressed in transfected cells; host or cells: RBL cells (membrane homogenates)
# Sequence (P41145 whole entry): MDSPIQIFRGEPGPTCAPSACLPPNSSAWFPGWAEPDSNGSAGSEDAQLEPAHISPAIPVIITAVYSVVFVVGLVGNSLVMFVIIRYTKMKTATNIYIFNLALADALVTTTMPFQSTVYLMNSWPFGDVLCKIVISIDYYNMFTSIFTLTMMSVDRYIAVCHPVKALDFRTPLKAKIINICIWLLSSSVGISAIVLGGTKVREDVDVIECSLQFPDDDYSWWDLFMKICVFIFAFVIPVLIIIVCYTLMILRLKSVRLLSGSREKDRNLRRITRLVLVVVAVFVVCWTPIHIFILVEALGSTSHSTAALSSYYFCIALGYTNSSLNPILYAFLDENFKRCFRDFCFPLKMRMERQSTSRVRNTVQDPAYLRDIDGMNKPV
# Test: Human k-opioid (KOP) receptor (agonist radioligand [3H]U-69593) binding assay, transfected RBL cell membranes
# Experimental Conditions: read-out: KOR % Inh. @ 1 uM
Property Label: inhibition at 1 µM (%)

Solved cases (2 shown):
O=C(c1c(-c2ccccc2)nn2c1COCC2)N1[C@@H]2CC[C@@H](C2)[C@H]1COc1ccc(C(F)(F)F)cn1 [Example 87]; 3
O=C(c1nn2c(c1-c1ccccn1)OCCC2)N1[C@H](Cn2ccc(-c3ccc(F)cn3)n2)C[C@@H]2C[C@@H]21 [Example 202]; 3

I = C[C@@]1(COc2ccc(C(F)(F)F)cn2)CCCN1C(=O)c1nn2ccccc2c1-c1ccccc1 [Example 143]
II = O=C(c1nn2ccccc2c1-c1ccccc1)N1CC[C@H]1Cn1ccc(-c2ccc(F)cn2)n1 [Example 115]
// which entry has the larger inhibition at 1 µM value, I or II ? Identify your pick by its label. II
(II: 51%, I: 3%)

----------
# Target System: Orexin type 1 (OX1R) receptor (Homo sapiens, UniProt O43613)
# Construct: expressed in transfected cells; host or cells: CHO cells (G418 selection)
# Test: In vitro orexin antagonism assay: intracellular calcium measurement (FLIPR), orexin-A 3 nM as agonist
# Format: cell-based
# Experimental Conditions: second value of IC50/Kb cell
Property Label: Kb (nM)

I = O=C(c1c(-c2ccccc2F)nn2ccccc12)N1CCC[C@H]1Cn1ccc(-c2ccccn2)n1
II = O=C(c1nn2c(c1-c1ccccc1)OCCC2)N1CCC[C@H]1Cn1ccc(-c2ccccc2)n1
// which entry has the larger Kb value, I or II ? Identify your pick by its label. I

----------
# Target System: Orexin type 1 (OX1R) receptor (Homo sapiens)
# Construct: expressed in transfected cells; host or cells: CHO cells (G418 selection)
# Sequence (O43613 1-425): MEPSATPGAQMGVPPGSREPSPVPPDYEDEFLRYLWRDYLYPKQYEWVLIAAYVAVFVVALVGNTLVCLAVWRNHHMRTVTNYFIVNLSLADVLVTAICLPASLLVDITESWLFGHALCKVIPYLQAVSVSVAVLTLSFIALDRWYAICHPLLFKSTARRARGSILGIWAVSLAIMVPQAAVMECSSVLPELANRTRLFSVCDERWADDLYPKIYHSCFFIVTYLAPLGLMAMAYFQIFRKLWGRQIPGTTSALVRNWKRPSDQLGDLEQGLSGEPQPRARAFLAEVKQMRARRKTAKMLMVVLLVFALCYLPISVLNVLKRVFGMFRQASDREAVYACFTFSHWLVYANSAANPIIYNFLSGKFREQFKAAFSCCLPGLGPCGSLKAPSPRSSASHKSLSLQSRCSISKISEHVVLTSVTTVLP
# Test: In vitro orexin antagonism assay: intracellular calcium measurement (FLIPR), orexin-A 3 nM as agonist
# Format: cell-based
# Experimental Conditions: read-out: OX1R, % Inh. @ 1 uM
Property Label: inhibition at 1 µM (%)

Solved cases (2 shown):
O=C(c1c(-c2ccccc2F)nn2ccccc12)N1CCC[C@H]1Cn1cc(-c2ccc(F)cn2)cn1 [Example 82]; 85
O=C(c1c(-c2ccccc2F)nn2ccccc12)N1CCC[C@H]1COc1ccc(C(F)(F)F)cn1 [Example 64]; 81

1 = O=C(c1c(-c2ccccc2)nc2cc(C(F)(F)F)ccn12)N1CCC[C@H]1Cn1ccc(-c2ccc(F)cn2)n1 [Example 94]
2 = O=C(c1c(-c2ccccc2)nc2ccc(F)cn12)N1CCC[C@H]1Cc1nc(-c2ccc(F)cn2)no1 [Example 121]
3 = O=C(c1nc2n(c1-c1ccccn1)CCOC2)N1CCC[C@H]1Cc1nc(-c2ccc(F)cn2)no1 [Example 220]
Please put the entries in order of rising inhibition at 1 µM. List labels; respect the requested ordering. 3, 2, 1

----------
# Target System: human orexin-2 receptor (OX2R) (Homo sapiens, UniProt O43614)
# Construct: expressed in transfected cells; host or cells: CHO cells (G418 selection)
# Sequence (O43614 whole entry): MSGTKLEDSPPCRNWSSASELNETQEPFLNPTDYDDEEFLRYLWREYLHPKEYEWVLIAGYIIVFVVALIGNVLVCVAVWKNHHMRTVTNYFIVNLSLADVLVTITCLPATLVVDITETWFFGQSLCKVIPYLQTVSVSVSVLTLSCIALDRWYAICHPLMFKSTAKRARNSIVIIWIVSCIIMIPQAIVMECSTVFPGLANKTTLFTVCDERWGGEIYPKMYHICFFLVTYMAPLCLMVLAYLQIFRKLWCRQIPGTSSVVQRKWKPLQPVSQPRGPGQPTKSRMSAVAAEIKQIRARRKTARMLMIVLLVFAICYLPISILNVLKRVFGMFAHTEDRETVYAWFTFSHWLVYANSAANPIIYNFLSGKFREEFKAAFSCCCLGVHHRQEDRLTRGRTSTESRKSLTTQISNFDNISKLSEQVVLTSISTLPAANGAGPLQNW
# Test: In vitro orexin antagonism assay: intracellular calcium measurement (FLIPR), orexin-A 3 nM as agonist
# Assay type: cell-based
# Experimental Conditions: second value of IC50/Kb cell
Property Label: Kb (nM)

Solved cases (2 shown):
O=C(c1nn2c(c1-c1ccccc1)COCC2)N1CCC[C@H]1Cn1ccc(-c2ccccc2)n1 [Example 129]; 41
O=C(c1nn2ccccc2c1-c1ccccc1)N1CCC[C@H]1Cn1cc(-c2ccc(F)cn2)cn1 [Example 112]; 3

a = O=C(c1c(-c2ccc(F)cc2)nn2ccccc12)N1CCC[C@H]1Cn1ccc(-c2ccccc2)n1 [Example 44]
b = O=C(c1c(-c2ccccc2)nn2ccccc12)N1CCC[C@H]1Cn1ccc(-c2ccccc2)n1 [Example 13]
// which entry has the larger Kb value, a or b ? Identify your pick by its label. a
(a: 31 nM, b: 10 nM)

----------
# Target System: Orexin type 1 (OX1R) receptor (Homo sapiens)
# Construct: expressed in transfected cells; host or cells: CHO cells (G418 selection)
# Sequence (O43613 1-425): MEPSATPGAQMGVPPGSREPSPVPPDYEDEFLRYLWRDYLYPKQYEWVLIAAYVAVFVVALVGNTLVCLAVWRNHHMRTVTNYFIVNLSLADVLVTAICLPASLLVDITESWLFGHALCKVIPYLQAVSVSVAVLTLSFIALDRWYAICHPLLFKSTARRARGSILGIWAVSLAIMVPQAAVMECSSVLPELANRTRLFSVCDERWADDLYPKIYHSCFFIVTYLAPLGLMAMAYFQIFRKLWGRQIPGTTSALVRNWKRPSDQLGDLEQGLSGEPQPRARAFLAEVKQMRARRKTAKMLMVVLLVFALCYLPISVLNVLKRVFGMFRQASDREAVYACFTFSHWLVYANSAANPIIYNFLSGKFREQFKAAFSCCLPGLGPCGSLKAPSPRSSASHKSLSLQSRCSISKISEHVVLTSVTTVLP
# Test: In vitro orexin antagonism assay: intracellular calcium measurement (FLIPR), orexin-A 3 nM as agonist
# Assay type: cell-based
# Experimental Conditions: @ 1 uM
Property Label: OX1R, % Inh. @ 1 uM (%)
Entry rule: numbers only, all in %.

Solved cases (3 shown):
O=C(c1nn2c(c1-c1ccccn1)COCC2)N1CCC[C@H]1Cn1ccc(-c2ccc(F)cn2)n1 [Example 212]; 96
O=C(c1c(-c2ccc(F)cc2)nn2ccccc12)N1CCC[C@H]1Cn1ccc(-c2ccc(C(F)(F)F)cc2)n1; 59
O=C(c1c(-c2ccccc2)nn2ccccc12)N1CCC[C@H]1Cn1ccc(-c2ccc(C(F)(F)F)cc2)n1; 78

Next item in the queue.
I would be grateful if you could share the reported OX1R, % Inh. @ 1 uM for `O=C(c1c(-c2ccccc2F)nn2c1COCC2)N1CCC[C@H]1Cn1ccc(-c2ccc(F)cc2)n1` . 84

----------
# Target System: human orexin-2 receptor (OX2R) (Homo sapiens, UniProt O43614)
# Construct: expressed in transfected cells; host or cells: CHO cells (G418 selection)
# Test: In vitro orexin antagonism assay: intracellular calcium measurement (FLIPR), orexin-A 3 nM as agonist
# Format: cell-based
# Experimental Conditions: read-out: OX2R, % Inh. @ 1 uM
Property Label: inhibition at 1 µM (%)

O=C(c1c(-c2ccccc2)nn2c1COCC2)N1CCC[C@H]1Cn1ccc(-c2ccc(F)cn2)n1; 36
O=C(c1c(-c2ccccc2F)nn2c1COCC2)N1CCC[C@H]1Cn1cc(-c2ccccn2)cn1; 40
O=C(c1nn2cccnc2c1-c1ccccn1)N1CCC[C@H]1Cc1nc(-c2ccccn2)no1; 23

I = O=C(c1c(-c2ccccc2)nc2ccc(F)cn12)N1CC[C@H]1Cn1ccc(-c2ccc(F)cn2)n1
II = O=C(c1c(-c2ccccc2)nn2cccnc12)N1CCC[C@H]1Cn1ccc(-c2ccccc2)n1
// which entry has the larger inhibition at 1 µM value, I or II ? Identify your pick by its label. II
(II: 81%, I: 29%)
